Provenance of the data: the nanobody polyreactivity screen of Harvey et al. (2022)

assay: yeast display, Sf9 membrane polyspecificity reagent, FACS + sequencing; frameworks hold sequencing errors
quantity name: polyreactivity (PSR sort gate)

{"ordered residues": "QVQLVESGGGLVQAGGSLRLSCAASGRTFYFNGMGWYRQAPGKERELVAAIRWRDSNTYYADSVKGRFTISRDNAKNTVYLQMNSLKPEDTAVYYCNVGIYSYGINGRYDYWGQGTQVTVSS", "experimental result": "high polyreactivity"}
{"ordered residues": "QVQLQESGGGLVQAGGSLRMSCAASGKIFDADIMGWYRQAPGKERELVASNTDGRRTNYADSVKGRYTISRDSEKNTVYLQMNSLKAEDTAEYYCAAIAYPVVPTSFDYDSDYFHWGQGTQVTVSS", "experimental result": "high polyreactivity"}
{"ordered residues": "QVQLVESGGGLVQAGGSLRLSCAASGSTIWPYTMGWYRQAPGKERELVAAITLRGGTTYYADSVKGRFTISRDNAKNTVYLQMNSLKPEDTVVYYCNATSGNPASTAWMNYWGQGTQVTVSS", "experimental result": "low polyreactivity"}
{"ordered residues": "QVQLVESGGGLVQAGGSLRLSCAASGRIFYRNAMGWYRQAPGKERELVAAISRRGGSTSYADSVKGRFTISRDNANNTVYLQMNSLKPEDTAVYYCAASRFRTGQEDDYWGQGTQVTVSS", "experimental result": "high polyreactivity"}
{"ordered residues": "QVQLVESGGGLVQAGGSLRLSCAASGRIFLGNAMGWYRQAPGKDRELVAAITNGGGSTYYADSVKGRFTISRDNAKNTVYLQMNSLKPEDTAVYYCARGYKKSVQRFEYWGQGTQVTVSS", "experimental result": "high polyreactivity"}
{"ordered residues": "QVQLVESGGGLVQAGGSLRVSCAASGRTFIKYAMGWYRQAPGKERELVAAISRNGGSTNYADSVKGRFTISRDNAKNTVYFQMNSLKPEDTAVYYCAAVGTVSRTVGYNYWGQGTQVTVSS", "experimental result": "high polyreactivity"}
{"ordered residues": "QVQLVESGGGLDQAGGSLRLSCAASGNTSPVNAMGWYRQAPGKERELVAAITQSGGSTYYADSVKGRFTISRDNAKNTVYLQMNSLKPEDTAVYYCAAPDAGWRDGGDYWGQGTQVTVSS", "experimental result": "low polyreactivity"}
{"ordered residues": "QVQLVESGGGLVQAGGSLRLSCAASGRTFTSYAMGWYRQEHGKERELVAGISSGGSTNYADSVKGRFTLSRDNAKNTVYLQMNSLKPEDTAVYYWAAGFSPGSYDAPTLAFEYWGQGTQVTVSS", "experimental result": "low polyreactivity"}
{"ordered residues": "QVQLVESGGGLVQAGGSLRITCAGSGRTFFGYAMGWYRQAPGKERELVAAITRGGSTNYADSVKGRFTISLDNGKNTLYLQMNSLKPEDSAVYYCAVGVPTTFKNRRYFRMDYWGQGTQGTVSS", "experimental result": "high polyreactivity"}
{"ordered residues": "QVQLVESGVGLVQAGGSLRLSCAASGRTFDVYAMGWYRQAPGKERELVAAISRGGSTYYADSVKGRFTISRDNAKNTVYLQMNSLKPEDTAVYYCNKAYSSTRGYGYWGQGTQVTVSS", "experimental result": "high polyreactivity"}
{"ordered residues": "QVQLVESGGGLVQAGGSLRLSCAASGITFTYYARGWYRQAPGKEMELVAAISWSGGSTYYADSVKGRFTISRDNAKNTVYLQMNSLKPEDTAVYYCAATFSRFAYYYWGQGTQVTVSS", "experimental result": "high polyreactivity"}
